System: SNB-19
assay.details: NCI tumour cell line growth inhibition, 48 h
Activity calls are given as the source filed them. No stated cut-off is given here; in the data, active = GI50 up to about 1.1 µM and inactive = higher.

molecule: NNC(=O)/C(=C/c1cccc([N+](=O)[O-])c1)NC(=O)c1ccccc1
GI50: > 100 µM (inactive)
--
molecule: C[n+]1cc2cc(O)c(O)cc2c2ccc3cc(O)c(O)cc3c21.c1ccncc1
GI50: 1.49 µM (inactive)
--
molecule: C/C(=N\NC(=S)N1CCC(C2CCN(C(=S)N/N=C(\C)c3ccccn3)CC2)CC1)c1ccccn1
GI50: 74.1 µM (inactive)
--
molecule: CC(C)C[C@H]1[C@@H](OCc2ccccc2)COS(=O)N1[C@H](C)c1ccccc1 (stereo not given in full)
GI50: 30.3 µM (inactive)
--
molecule: NC(=S)N/N=C(\Cc1nc2ccc(Cl)cc2nc1O)C(=O)Nc1ccc(Cl)cc1
GI50: > 100 µM (inactive)
--
molecule: N#CC(NNC(=O)c1ccccc1O)c1c(O)ccc2ccccc12 (stereo not given)
GI50: 13.6 µM (inactive)
--
molecule: COC(=O)CC1NC(=O)C1C1(C)OCCO1 (stereo not given)
GI50: > 100 µM (inactive)
--
molecule: C1CCN(c2nc(=[N+]3CCCCC3)ss2)CC1
GI50: > 100 µM (inactive)
--
molecule: Cc1ccc([N+](=O)[O-])cc1NC1=NCCO1
GI50: > 100 µM (inactive)
--
molecule: CCOC(=O)c1nc2ccc(C(F)(F)F)cc2nc1Nc1cc(OC)c(OC)c(OC)c1
GI50: > 100 µM (inactive)
--
molecule: CC12CCC(=O)[C@@]1(C)CCCC2=O (stereo not given in full)
GI50: > 100 µM (inactive)
--
molecule: O=C(Oc1cccnc1)c1cc2cc(CCl)ccc2oc1=O
GI50: 61.9 µM (inactive)
--
molecule: COC(=O)CC1CC2(C(=O)OC)c3[nH]c4ccccc4c3CCN2C1=O (stereo not given)
GI50: > 100 µM (inactive)
--
molecule: CC(=O)c1cccc(Nc2nc3ccccc3c3occc23)c1
GI50: 20.2 µM (inactive)
--
molecule: O=Cc1ccc(OC[C@H]2COC(=O)N2)cc1
GI50: > 100 µM (inactive)
--
molecule: CC(C)c1cccc(C(C)C)c1NC(=O)C(=O)C(C(=O)c1ccc2ccccc2c1)C1OC(=O)c2ccccc21 (stereo not given)
GI50: > 100 µM (inactive)
--
molecule: O=C1C(=O)N(C(=O)c2ccc(Cl)c(Cl)c2)c2ccccc21
GI50: > 100 µM (inactive)
--
molecule: CC(CCN)(CCN)[N+](=O)[O-]
GI50: > 100 µM (inactive)
--
molecule: CCCCCCCC(=O)O[C@H]1[C@H]2[C@@H](CC1(C)C)C(=O)[C@]13O[C@H]1C(=O)[C@]1(CO1)[C@]23C
GI50: 17.7 µM (inactive)
--
molecule: c1ccc2c(c1)[nH]c1c3ccccc3sc21
GI50: > 100 µM (inactive)

====

Each entry below carries its reported GI50.
Tested on: M14
assay.details: NCI tumour cell line growth inhibition, 48 h
The source made the active and inactive calls. Cut-off read from the data, not from the text of the source: active = GI50 up to about 1.1 µM and inactive = higher.
observation.type: GI50

molecule: [N-]=[N+]=NC1(Cc2ccccc2)C(=O)c2cccc3c2N(CCC3)C1=O (centres undefined)
observed: > 100 µM (inactive)
--
molecule: CCN1C(=O)N(C)C(O)c2c1nc1ccccn1c2=O (centres undefined)
observed: 32.1 µM (inactive)
--
molecule: O=C1C=Cc2c(-c3ccccc3)oc3cccc1c23
observed: 30.5 µM (inactive)
--
molecule: CC(=O)Nc1ccc(C2=N/C(=C\c3ccc(Cl)cc3)C(=O)O2)cc1
observed: 25.5 µM (inactive)
--
molecule: O=[N+]([O-])c1ccc2occ3c2c1CCC3
observed: > 100 µM (inactive)
--
molecule: CC(=O)NNC(=S)N/C=C1/C(=O)C=C(C)OC1=O
observed: > 100 µM (inactive)
--
molecule: COc1ccc(C(=O)C(c2ccc(OC)cc2)C2(O)C(=O)Nc3ccccc32)cc1 (centres undefined)
observed: > 100 µM (inactive)
--
molecule: COC(=O)NN1C(=O)C(=P(c2ccccc2)(c2ccccc2)c2ccccc2)C(C(=O)OC)=C1C
observed: > 100 µM (inactive)
--
molecule: COC(=O)C1=C(C)N(NC(=O)c2ccccc2)C(C)(O)C12CCOC2=O (centres undefined)
observed: > 100 µM (inactive)
--
molecule: OC(c1ccc(-c2ccccc2)cc1)C(F)(F)c1nc2ccccc2o1 (centres undefined)
observed: > 100 µM (inactive)
--
molecule: NNC(=S)N/N=C(\CC1OC(=O)c2ccccc21)c1ccccc1O (centres undefined)
observed: 61.9 µM (inactive)
--
molecule: C=CCOC(=O)Cn1cnc2c(N)ncnc21
observed: > 100 µM (inactive)
--
molecule: O=C1c2ccccc2-c2c1c(-c1ccc(O)cc1O)nc1ccc3ccccc3c21
observed: > 100 µM (inactive)
--
molecule: Cc1cc2c(cc1C)[n+]([O-])c(C(=O)C/C(=N/OCCCc1ccccc1)C(=O)Nc1cc(Cl)ccc1Cl)c(C)[n+]2[O-]
observed: > 100 µM (inactive)
--
molecule: Cc1cc(Br)cc(C)c1NC(=O)C(=O)CC(=O)c1sc(-n2nc(-c3ccccc3)cc2-c2ccccc2)nc1C
observed: > 100 µM (inactive)
--
molecule: CC(=O)O[C@@H]1[C@H](OC2CCCCC2(c2ccccc2)c2ccccc2)O[N+]([O-])=CC12CCCCC2 (some centres undefined)
observed: 18.7 µM (inactive)
--
molecule: O=C1CCC(c2ccccc2)=NN1c1nc2ccccc2s1
observed: 49.7 µM (inactive)
--
molecule: NNC(=S)N/N=C/C(Cl)=C(\Cl)C(=O)O
observed: > 100 µM (inactive)
--
molecule: O=C(O)C[C@H]1CCCCC12CCOC2=O (some centres undefined)
observed: > 100 µM (inactive)
--
molecule: COC(=O)C1CCC(=S)N1C(C)=O (centres undefined)
observed: > 100 µM (inactive)
--
molecule: NCC(O)CNC(=O)c1ccc(-c2ccc(-c3ccc(C(=O)NCC(O)CN)cc3)o2)cc1 (centres undefined)
observed: > 100 µM (inactive)
--
molecule: Cc1ccc2c3c(cnc2n1)C(=O)OCCN3C
observed: > 100 µM (inactive)
--
molecule: CC(=O)Nc1ccc(/C=c2\sc3nnc(/C=C/c4ccccc4)n3c2=O)cc1
observed: > 50 µM (inactive)
--
molecule: O=C(Nc1ccc2oc(=O)c(C(=O)O)cc2c1)Oc1ccccc1
observed: > 100 µM (inactive)
--
molecule: CCOC(=O)C1NCCc2c1[nH]c1ccccc21 (centres undefined)
observed: > 10 µM (inactive)
--
molecule: CCCCOc1ccc2c(c1)CC[C@@H]1[C@@H]2CC[C@]2(C)C(=O)N(CCCC)C(=O)C[C@@H]12
observed: > 100 µM (inactive)
--
molecule: NC(=O)NCc1c(C(N)=O)ncn1Cc1ccccc1
observed: > 100 µM (inactive)
--
molecule: C[C@H](CCC(=O)NCC(=O)O)[C@H]1CC[C@H]2[C@@H]3[C@H](O)C[C@@H]4C[C@H](O)CC[C@]4(C)[C@H]3CC[C@]12C
observed: > 100 µM (inactive)
--
molecule: CCOc1ccc(Nc2nc3c(s2)C(=O)c2ccccc2C3=O)cc1
observed: 12.2 µM (inactive)
--
molecule: COc1ccccc1/C=C/c1ccnc2ccccc12
observed: 16.2 µM (inactive)
--
molecule: O=C(Cc1nc2ccccc2s1)C(=O)Nc1ccccc1C(F)(F)F
observed: > 100 µM (inactive)
--
molecule: COC(=O)C1=C(O)C(C(=O)OC)[C@@]2(O)[C@@H](C(=O)OC)[C@H](C)C[C@@H]1[C@@H]2C(=O)OC (some centres undefined)
observed: 20.6 µM (inactive)
--
molecule: NC(=S)N/N=C(\Cc1nc2ccc(Cl)cc2nc1O)C(=O)Nc1ccc(Cl)cc1
observed: > 100 µM (inactive)
--
molecule: CCCCCCCCCCCCCCCCCCN(C)CC(COP(=O)([O-])OCC[N+](C)(C)C)OC (centres undefined)
observed: 9.84 µM (inactive)
--
molecule: N#CC(NNC(=O)c1ccccc1O)c1c(O)ccc2ccccc12 (centres undefined)
observed: 3.46 µM (inactive)
--
molecule: COC(=O)C1(NC(=O)C(N)CC(=O)O)C(C)C1C (centres undefined)
observed: > 100 µM (inactive)
--
molecule: CCn1c(=O)c2c3ccc(OC)cc3[nH]c2c2ccc(OC)cc21
observed: 36.1 µM (inactive)
--
molecule: Cc1nc2c(C)c3c([nH]c4ccc(Cl)cc43)c(C)c2c(O)c1C
observed: 10.9 µM (inactive)
--
molecule: CCCCCC(=O)Nc1[nH]cnc1C(N)=O
observed: > 100 µM (inactive)

====

Each entry below carries its reported GI50.
Test system: OVCAR-8
assay.details: NCI tumour cell line growth inhibition, 48 h
Active and inactive are the calls of the source. Cut-off read from the data, not from the text of the source: active = GI50 up to about 1.1 µM and inactive = higher.

compound: O=S(=O)(O)c1ccccc1/N=N\c1ccc(/N=N/c2c(O)ccc3ccccc23)c(S(=O)(=O)O)c1
GI50: > 100 µM (inactive)
--
compound: Cn1c(=O)c(C(c2ccccc2)c2c(O)c3ccccc3n(C)c2=O)c(O)c2ccccc21
GI50: > 100 µM (inactive)
--
compound: CC(=O)OC1C/C(C)=C/CCC(C)/C=C/C2(C)CCC(C(C)(C)O)C12 (centres undefined)
GI50: 57 µM (inactive)
--
compound: C[C@H](CCC1=NCCN1)[C@H]1CC[C@H]2[C@@H]3CC[C@@H]4C[C@H](O)CC[C@]4(C)[C@H]3C[C@H](O)[C@]12C
GI50: 15.5 µM (inactive)
--
compound: O=C1c2ccccc2-c2c1c(-c1ccc(O)cc1O)nc1ccc3ccccc3c21
GI50: 79.6 µM (inactive)
--
compound: O[C@H]1[C@@H]2OC[C@@H](O)[C@H](OCc3ccccc3)[C@@](COCc3ccccc3)(O2)[C@@H]1OCc1ccccc1
GI50: 16.7 µM (inactive)
--
compound: N=C(N)NCCCC(NC(=O)c1c2ccccc2nc2ccccc12)C(=O)O (centres undefined)
GI50: > 100 µM (inactive)
--
compound: COC(=O)C1(NC(=O)C(N)CC(=O)O)C(C)C1C (centres undefined)
GI50: > 100 µM (inactive)
--
compound: CCCCCCCC(=O)O[C@H]1[C@H]2[C@@H](CC1(C)C)C(=O)[C@]13O[C@H]1C(=O)[C@]1(CO1)[C@]23C
GI50: 2.48 µM (inactive)
--
compound: COC12c3ccccc3-c3ccccc3C1[C@H]1C(=O)OC(=O)[C@H]12 (some centres undefined)
GI50: > 10 µM (inactive)
--
compound: O=C(N/N=C/C=C/c1ccc([N+](=O)[O-])o1)c1ccc(C(=O)N/N=C/C=C/c2ccc([N+](=O)[O-])o2)cc1
GI50: 13.2 µM (inactive)
--
compound: NC(=S)N/N=C(\Cc1nc2ccc(Cl)cc2nc1O)C(=O)Nc1ccc(Cl)cc1
GI50: > 100 µM (inactive)
--
compound: O=Cc1ccc(OC[C@H]2COC(=O)N2)cc1
GI50: > 100 µM (inactive)
--
compound: O=C(/C=C1\Nc2ncccc2N=C1CC(=O)c1ccccc1)c1ccccc1
GI50: 5.93 µM (inactive)
